- run-description: NCI Yeast Anticancer Drug Screen. Data for the mec2-1 strain (AID 157)
- cond: S. cerevisiae mec2-1 strain, at 33.0 µM, hits give high values
The panel holds about 79,000 compounds, 15% with a hit somewhere; the sample as a whole holds those more often.

compound	growth inhibition / %
CCCCCCSc1ncnc2[nH]ncc12	0
O=C1C=C(c2ccccc2)OC1(c1ccccc1)N1CCOCC1 (stereo unspecified)	8
O=c1[nH]c(-c2ccccc2)nc2c1sc1nc3ccccc3n12	-19
O/N=C\c1c(O)ccc2ccccc12	12
COc1ccc2c(c1)n([O-])c1ccccc1[n+]2=O	50
CCOC(=O)C(C(=O)OCC)=P(c1ccccc1)(c1ccccc1)c1ccccc1	0
O=c1ccc(=O)n(-c2ccccc2)[nH]1	78
CN(C)CCNc1ccc2ncnc3c2c1C(=O)c1ccccc1-3	45
c1ccc(CCN2CCc3ccccc3C2)cc1	8
CCCCN(CCCC)C(=O)/C=C/c1ccccc1	-4
O=c1nc2n(Cc3ccccc3)c3ccccc3nc-2c(=O)[nH]1	6
NC(=O)c1c([N+](=O)[O-])cc(C(F)(F)F)cc1[N+](=O)[O-]	3
COC(=O)/C=C(/CC(=O)OC)C(=O)OC	0
Cc1cc2cc3cc(C)c(N)cc3nc2cc1N	82
S=c1sc2c(s1)SCCS2	-2
COc1cc(/C=C2\NC(=O)N(/C=C3\C(=O)Oc4ccccc4C3=O)C2=O)ccc1O	68
CCOc1ccc(NC(=O)C2=C(C)NC(C)=C(C(=O)Nc3ccc(OCC)cc3)C2c2cccc([N+](=O)[O-])c2)cc1	36
O=[N+]([O-])c1cc(F)c(F)cc1Sc1cc(F)c(F)cc1[N+](=O)[O-]	99
CC1=C(SCc2ccccc2)C(=O)c2ccccc2C1=O	74
COc1ccc(C(=O)Oc2ccccc2Br)cc1	-7
Oc1[nH]c2ccccc2c1N=NC(=S)N1CCCCC1	97
O=C(CC(C(=O)O)N1CCOCC1)c1ccccc1 (stereo unspecified)	31
N#CC1=C(N)N(/N=C/c2ccccc2)C(c2ccccc2)C1(C#N)C#N (stereo unspecified)	91
CCC1(OC(=O)CN2CCN(CCO)CC2)C(=O)OCc2c1cc1n(c2=O)Cc2cc3ccccc3nc2-1 (stereo unspecified)	-21
O=[N+]([O-])/C=C/c1cc(Cl)c(/C=C/[N+](=O)[O-])cc1Cl	81
CC(=O)ON=C1C=CC(=C(C#N)c2ccc(Cl)cc2)C=C1	19

###

- run-description: NCI Yeast Anticancer Drug Screen. Data for the mec2-1 strain (AID 157)
- cond: S. cerevisiae mec2-1 strain, at 33.0 µM, hits give high values
Compounds without any hit were thinned out: in the full panel of roughly 79,000, 15% have a hit.
Listing of recorded growth inhibition by entry.

compound	growth inhibition (%)
COc1cc2ccnc(-c3c4ccccc4c(N)c4c(OC)c(OC)ccc34)c2cc1OC	7
CCC(C)(C)c1ccc(Oc2cccc(C(=O)O)c2)cc1	70
COC(=O)Oc1cc(Cl)c(Cl)cc1Cl	5

###

Listing of recorded growth inhibition by entry.
- run-description: NCI Yeast Anticancer Drug Screen. Data for the rad50 strain (AID 155);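 further: 0% = growth of vehicle-only cultures of the same strain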
- cond: S. cerevisiae rad50 strain growth inhibition; at 5.0 µM (retest, dose inferred, filed as 0.5); hits give high values
- Description: Growth inhibition of yeast strains with defined genetic alterations is measured as a screen for potential anti-cancer activity. Selected strains with alterations in DNA damage repair or cell cycle control were exposed to compounds and growth inhibition was measured relative to vehicle treated controls. The strain used in this assay is rad50
About 79,000 compounds went through this panel and 15% of them were active in at least one assay; those are over-represented in the sample as a whole.
measurement-type: growth inhibition (%)

compound	measured-result
C/C(=N\Nc1ccc([N+](=O)[O-])cc1[N+](=O)[O-])c1sc(-n2nc(-c3ccccc3)cc2-c2ccccc2)nc1C	25
O=c1c2ccccc2nc(-c2ccccc2)n1O	45
O=C(Oc1ccc2c(c1)CN(Cc1ccccc1)CO2)c1ccccc1	-1

###

Listing of recorded growth inhibition by entry.
- run-description: NCI Yeast Anticancer Drug Screen. Data for the rad50 strain (AID 155);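 further: 0% = growth of vehicle-only cultures of the same strain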
- cond: S. cerevisiae rad50 strain growth inhibition; at 50.0 µM; hits give high values
About 79,000 compounds went through this panel and 15% of them were active in at least one assay; those are over-represented in the sample as a whole.

compound	growth inhibition [%]
O=C1c2ccccc2C(=O)N1CCCC(=O)n1cc(F)c(=O)[nH]c1=O	71.3
O=C(O)C1CC(c2ccccc2)=NN1c1ccccc1 (stereo not drawn)	19.4
COC(=O)CC1CCc2c(ccc3ccccc23)C1(C)C(=O)OC (stereo not drawn)	15.3
O=c1ccc2ccccc2c2ccccc12	90.9
Cc1c2cccc(Sc3ccccc3)c2c2c3c(cccc13)[S+](c1ccccc1)C2 (stereo not drawn)	90.9
Oc1ccc2ccccc2c1CCc1c(O)ccc2ccccc12	95.1
OC1(c2ccccc2)CCCc2ccc(Cl)cc21 (stereo not drawn)	57.2
CC(C)c1ccc(NC(=S)NC(=O)c2ccccc2)cc1	52
O=C1/C(=C/c2ccccc2)CCCC1CN1CCCCC1 (stereo not drawn)	72.3
Cc1cccc2c1nc1ccc(Cl)cc1[n+]2C	98
CCCCCCCCCCCC(O)S(=O)(=O)O (stereo not drawn)	-3.6
CCCCCCN(CCCCCC)CC(O)c1ccnc2ccc(OC)cc12 (stereo not drawn)	-10.1
Cn1c(-c2ccc(/C=N\N3CCN(/N=C/c4ccc(-c5c[n+]6ccccc6n5C)cc4)CC3)cc2)c[n+]2ccccc12	49
CC12C(=O)OC(=O)C(c3ccccc31)c1ccccc12	98.3
O=C1CC(=O)c2ccccc21	87.4
CNC(=O)OCc1c(COC(=O)NC)c2n(c1C)-c1ccc(OC)cc1CCC2	85.7
Oc1[nH]c2ccccc2c1N=NC(=S)N1CCCCC1	75.5
O=C1OC(C2=CC(=O)c3ccccc3C2=O)C(Cl)=C1Cl (stereo not drawn)	86.3

###

- run-description: NCI Yeast Anticancer Drug Screen. Data for the bub3 strain (AID 167)
- cond: S. cerevisiae bub3 mutant strain, at 3.7 µM, hits give high values
Compounds without any hit were thinned out: in the full panel of roughly 79,000, 15% have a hit.

compound	growth inhibition, %
CCOC(=O)COc1c(OC)cc(C2C3=C(COC3=O)Oc3cc4c(cc32)OCO4)cc1OC (stereo not drawn)	0
CC1=C(C(=O)NCc2ccccc2)C(c2ccccc2)C(C(=O)NCc2ccccc2)=C(C)N1	1
C=C1CC(CCCl)(c2ccccc2)OC1=O (stereo not drawn)	37

###

- run-description: NCI Yeast Anticancer Drug Screen. Data for the rad18 strain (AID 177)
- cond: S. cerevisiae rad18 mutant growth inhibition; at 3.7 µM; hits give high values
Compounds without any hit were thinned out: in the full panel of roughly 79,000, 15% have a hit.

molecule	u	growth inhibition
CCCCc1nnc(NS(=O)(=O)c2ccc(C)cc2)s1	%	4
C[Si](C)(C)/C=C/CCNC(C#N)c1ccccc1 (stereo not drawn)	%	-42
COc1ccc(C2C3=C(COC3=O)OC(C)(C)Oc3cc4c(cc32)OCO4)cc1OC (stereo not drawn)	%	5

###

- run-description: NCI Yeast Anticancer Drug Screen. Data for the bub3 strain (AID 167)
- cond: S. cerevisiae bub3 mutant strain, at 11.0 µM, hits give high values
The panel holds about 79,000 compounds, 15% with a hit somewhere; the sample as a whole holds those more often. Activity calls are given as the source filed them. Cut-off read from the data, not from the text of the source: active = growth inhibition above about 70%; inactive = the rest.

molecule	growth inhibition
CCOC(=O)C(Br)C(Br)c1ccccc1Cl (stereo not drawn)	47% (inactive)
COC(=O)/C=C(/C(=O)OC)C(Cl)(Cl)Cl	23% (inactive)
CN(C)[C@@H]1C(=O)C(C(N)=O)=C(O)[C@@]2(O)C(=O)C3=C(O)c4c(O)cccc4C[C@H]3C[C@@H]12	5% (inactive)

###

- run-description: NCI Yeast Anticancer Drug Screen. Data for the sgs1 strain (AID 173);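 further: 0% = growth of vehicle-only control cultures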
- cond: S. cerevisiae sgs1 mutant, at 3.7 µM, hits give high values
Compounds without any hit were thinned out: in the full panel of roughly 79,000, 15% have a hit. Activity calls are given as the source filed them. Cut-off read from the data, not from the text of the source: active = growth inhibition above about 70%; inactive = the rest.
measurement-type: growth inhibition

molecule	measured-result
O=C1OC(OC/C(Br)=C(\Br)COC2OC(=O)C(Cl)=C2Cl)C(Cl)=C1Cl (stereo not drawn)	0% (inactive)
COc1cccc2c1C(=O)c1c(O)c3c(c(O)c1C2=O)C[C@@](O)(C(C)=O)C[C@@H]3OC1CC(OC(C)=O)C(OC(C)=O)C(C)O1 (stereo partly drawn)	-23% (inactive)
O=[N+]([O-])c1cc(Cl)cnc1Br	25% (inactive)
COc1cc(C2SCC(=O)N2c2ccc(-c3ccc(-n4c(-c5ccccc5)nc5ccccc5c4=O)cc3)cc2)ccc1O (stereo not drawn)	0% (inactive)
CCN(CC)CCN(C)CCc1ccc(Br)cc1	23% (inactive)
CCOC(=O)C1=C(C)NC(C)=C(C(=O)OCCNC(=O)c2ccc(N=[N+]=[N-])cc2)C1c1ccccc1C(F)(F)F (stereo not drawn)	-2% (inactive)
CC(/C=C/c1ccccc1)=N\NC(N)=S	9% (inactive)
COc1cc(/C=C2\CCC/C(=C\c3ccc(O)c(OC)c3)C2=O)ccc1O	-10% (inactive)
